# systemUnderTest: the molecule itself
# assay: cross-linking; Ca2+-loaded proteins: 0.02% glutaric aldehyde, 16 h, 20 °C, protein 1 mg/mL, 20 mM Tricine-KOH pH 7.4, 50 mM KCl, 1 mM DTT, 1 mM CaCl2; SDS-PAGE, Coomassie, densitometry; self-association
propertyName: Monomer 20 kDa, % (%)
Give a bare numeral; the unit % is implied.

// worked examples, Monomer 20 kDa, % included
protein | valueUnits | Monomer 20 kDa, %
recombinant wild type human recoverin (natural protein, UniProt P35243 1-200, looked up, myristoyl group at the N terminus (degree of myristoylation exceeded 89%), recoverin, human, UniProt P35243; cDNA from Y79 retinoblastoma cells, amplified with primers from the start codon to the stop codon, subcloned into pET-15b(+) by NcoI and XhoI; also called rWT; rWT recoverin; source: E. coli pET15b rec/pBB131/BL21(DE3)RILLC+, purified (phenyl-Sepharose, Toyopearl SuperQ-650M)) MGNSKSGALSKEILEELQLNTKFSEEELCSWYQSFLKDCPTGRITQQQFQSIYAKFFPDTDPKAYAQHVFRSFDSNLDGTLDFKEYVIALHMTTAGKTNQKLEWAFSLYDVDGNGTISKNEVLEIVMAIFKMITPEDVKLLPDDENTPEKRAEKIWKYFGKNDDDKLTEKEFIEGTLANKEILRLIQFEPQKVKEKMKNA | % | 15.5
human recoverin mutant F172A (natural protein, UniProt P35243 1-200, looked up, myristoylated (fraction of non-myristoylated forms did not exceed 16%), recoverin, human, UniProt P35243, C-terminal 'black' cluster mutant; Parent construct as m1; source: E. coli, expressed and purified similarly to the rWT protein (phenyl-Sepharose, Toyopearl SuperQ-650M)) MGNSKSGALSKEILEELQLNTKFSEEELCSWYQSFLKDCPTGRITQQQFQSIYAKFFPDTDPKAYAQHVFRSFDSNLDGTLDFKEYVIALHMTTAGKTNQKLEWAFSLYDVDGNGTISKNEVLEIVMAIFKMITPEDVKLLPDDENTPEKRAEKIWKYFGKNDDDKLTEKEAIEGTLANKEILRLIQFEPQKVKEKMKNA | % | 22
human recoverin mutant F83A (natural protein, UniProt P35243 1-200, looked up, myristoylated (fraction of non-myristoylated forms did not exceed 16%), recoverin, human, UniProt P35243, N-terminal 'black' cluster mutant; Parent construct as m1; source: E. coli, expressed and purified similarly to the rWT protein (phenyl-Sepharose, Toyopearl SuperQ-650M)) MGNSKSGALSKEILEELQLNTKFSEEELCSWYQSFLKDCPTGRITQQQFQSIYAKFFPDTDPKAYAQHVFRSFDSNLDGTLDAKEYVIALHMTTAGKTNQKLEWAFSLYDVDGNGTISKNEVLEIVMAIFKMITPEDVKLLPDDENTPEKRAEKIWKYFGKNDDDKLTEKEFIEGTLANKEILRLIQFEPQKVKEKMKNA | % | 38.4

Okay, next one:
Prompt: Fill in: Monomer 20 kDa, % of human recoverin mutant F70A (natural protein, UniProt P35243 1-200, looked up, myristoylated (fraction of non-myristoylated forms did not exceed 16%), recoverin, human, UniProt P35243, N-terminal 'gray' cluster mutant; Parent construct as m1; source: E. coli, expressed and purified similarly to the rWT protein (phenyl-Sepharose, Toyopearl SuperQ-650M)) MGNSKSGALSKEILEELQLNTKFSEEELCSWYQSFLKDCPTGRITQQQFQSIYAKFFPDTDPKAYAQHVARSFDSNLDGTLDFKEYVIALHMTTAGKTNQKLEWAFSLYDVDGNGTISKNEVLEIVMAIFKMITPEDVKLLPDDENTPEKRAEKIWKYFGKNDDDKLTEKEFIEGTLANKEILRLIQFEPQKVKEKMKNA is ___
Response: 40.1
